- ASSAYED_TARGET: T1, full-length human p75 neurotrophin receptor fused at the cytoplasmic C-terminus to GFP (human, UniProt P08138 29-427)
- T1 construct: As query against the GFP-tagged library it carried the opposite colour tag (mCherry); kept as one molecule; also called p75^NTR; NGFR; source: HEK293 suspension cells, transiently transfected, on cells; not shown: GFP, C-terminal, kept
- T1 sequence (looked up): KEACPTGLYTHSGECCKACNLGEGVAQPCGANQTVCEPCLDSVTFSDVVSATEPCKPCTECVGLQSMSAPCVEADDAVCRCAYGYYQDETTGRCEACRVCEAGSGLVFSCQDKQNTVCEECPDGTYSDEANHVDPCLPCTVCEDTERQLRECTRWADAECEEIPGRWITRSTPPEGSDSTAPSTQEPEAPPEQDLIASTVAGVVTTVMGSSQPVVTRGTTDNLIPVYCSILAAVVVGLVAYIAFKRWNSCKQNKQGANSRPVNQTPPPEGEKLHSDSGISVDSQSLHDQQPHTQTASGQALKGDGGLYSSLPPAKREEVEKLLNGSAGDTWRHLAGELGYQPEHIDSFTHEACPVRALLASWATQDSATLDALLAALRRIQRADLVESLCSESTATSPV
- ASSAY_NOTES: flow cytometry on cells; cell-cell conjugates: HEK293F cells expressing 92 B7-1–mCherry point mutants (IgV domain) against HEK293F cells expressing CTLA-4–GFP, CD28-GFP or p75NTR-GFP; percent of WT binding
- CONDITIONS_USED: partners not purified

{"columns": ["BINDER", "loss in binding relative to WT"],
 "data": [
  ["hB7-1 Y121D–mCherry (ligand, human, UniProt P33681 35-288, looked up, human B7-1 (CD80), point mutant in the IgV domain; source: HEK293F, transfected, on cells) VIHVTKEVKEVATLSCGHNVSVEELAQTRIYWQKEKKMVLTMMSGDMNIWPEYKNRTIFDITNNLSIVILALRPSDEGTYECVVLKDEKDAFKREHLAEVTLSVKADFPTPSISDFEIPTSNIRRIICSTSGGFPEPHLSWLENGEELNAINTTVSQDPETELYAVSSKLDFNMTTNHSFMCLIKYGHLRVNQTFNWNTTKQEHFPDNLLPSWAITLISVNGIFVICCLTYCFAPRCRERRRNERLRRESVRPV", "> 25%"]
]}

The measurements presented in this section are drawn from paper PMC9663165.
